# System: M14
# experiment_description: Antiproliferative activity against human M14 cells assessed as inhibition of cell growth measured after 48 hrs by SRB assay
# Format: functional
# assay_conditions: M14, 48 h
One threshold, 50 nM, splits the recorded GI50 values: lower ones are rule met, equal or higher ones are rule not met.

// query In the record for O=C1CC(c2ccccc2)Cc2nc3ccc(Cl)cc3cc21 (stereo not given) , is GI50 less than 50 nM?
// result rule met

###

# Test system: K562
# experiment_description: Antiproliferative activity against human K562 cells assessed as inhibition of cell growth at 10 uM measured after 48 hrs by SRB assay relative to control
# Assay type: functional
# assay_conditions: K562, 48 h, read-out: GI
readout_type: inhibition of growth at 10 µM (%)
Kindly answer with a numeric value in %, unit omitted.

# compound, measured_target, inhibition of growth at 10 µM [%]
rows = [
    ("O=C1CC(c2ccccc2)Cc2nc3ccc(Br)cc3cc21 (stereo not given)", "K562", 93.9),
    ("COc1ccc2nc3c(cc2c1)C(=O)CC(C(F)(F)F)C3 (stereo not given)", "K562", 83.2),
    ("COc1ccc2nc3c(cc2c1)C(=O)CC(c1ccccc1)C3 (stereo not given)", "K562", 86.8),
    ("O=C1CC(c2ccccc2)Cc2nc3ccc(Cl)cc3cc21 (stereo not given)", "K562", 79.3),
]

Moving on to another compound below.
// query # input compound: O=C1CC(c2ccccc2)Cc2nc3c(Br)cc(Br)cc3cc21 (stereo not given) ; wanted: its inhibition of growth at 10 µM
// result 86.8

###

# Lookup of reported GI50 keyed by entry
# System: SK-MEL-5
# experiment_description: Antiproliferative activity against human SK-MEL-5 cells assessed as inhibition of cell growth measured after 48 hrs by SRB assay
# Type: functional
# assay_conditions: SK-MEL-5, 48 h
// note: answer is a bare numeric in nM

Study these solved cases before continuing.
# compound, readout_type, measure_unit, test_result
records = [
    ("O=C1CC(c2ccccc2)Cc2nc3ccc(Cl)cc3cc21 (stereo not given)", "GI50", "nM", 203),
    ("COc1ccc2nc3c(cc2c1)C(=O)CC(C(F)(F)F)C3 (stereo not given)", "GI50", "nM", 411),
    ("COc1ccc2nc3c(cc2c1)C(=O)CC(c1ccccc1)C3 (stereo not given)", "GI50", "nM", 540),
]

// query I would be grateful if you could share the reported GI50 for O=C1CC(c2ccccc2)Cc2nc3ccc(Br)cc3cc21 (stereo not given) .
// result 288

// query Check O=C1CC(c2ccccc2)Cc2nc3c(Br)cc(Br)cc3cc21 (stereo not given) too.
// result 298

###

# Tested on: KM12
# experiment_description: Antiproliferative activity against human KM12 cells assessed as inhibition of cell growth at 10 uM measured after 48 hrs by SRB assay relative to control
# Assay type: functional
# assay_conditions: KM12, 48 h, read-out: GI
A collection of compounds and their measured inhibition of growth at 10 µM
Numbers only; they are read as %.

Answered cases to consult:
# compound, measured_target, measure_unit, test_result
rows = [
    ("O=C1CC(c2ccccc2)Cc2nc3ccc(Br)cc3cc21 (stereo not given)", "KM12", "%", 91.1),
    ("COc1ccc2nc3c(cc2c1)C(=O)CC(C(F)(F)F)C3 (stereo not given)", "KM12", "%", 88.4),
    ("COc1ccc2nc3c(cc2c1)C(=O)CC(c1ccccc1)C3 (stereo not given)", "KM12", "%", 89.2),
    ("O=C1CC(c2ccccc2)Cc2nc3ccc(Cl)cc3cc21 (stereo not given)", "KM12", "%", 98.3),
]

# next compound below
// query Test system KM12; read-out inhibition of growth at 10 µM; what value for O=C1CC(c2ccccc2)Cc2nc3c(Br)cc(Br)cc3cc21 (stereo not given) ?
// result 98
